Source of measurements: ChEMBL document CHEMBL1137508

Some compounds, each annotated with its measured IC50.
# protocolSummary: Inhibition of rabbit muscle glycogen phosphorylase a
# Set-up: species or system Oryctolagus cuniculus
Unit µM implied. Number only.

Example cases with answers are listed next.
Ask: Item under review: C[C@H]1[C@H](C)CC[C@]2(C(=O)OCc3ccccc3)CC[C@]3(C)C(=CC[C@@H]4[C@@]5(C)C[C@@H](OS(C)(=O)=O)[C@H](O)C(C)(C)[C@@H]5CC[C@]43C)[C@H]12 . Reported IC50?
Result: 43.4

Ask: Item under review: CCCC(=O)O[C@@H]1C[C@]2(C)[C@H]3CC=C4[C@@H]5[C@@H](C)[C@H](C)CC[C@]5(C(=O)O)CC[C@@]4(C)[C@]3(C)CC[C@H]2C(C)(C)[C@H]1O . Reported IC50?
Result: 77.9

Ask: Item under review: CCCOC(=O)[C@]12CC[C@@H](C)[C@H](C)[C@H]1C1=CC[C@@H]3[C@@]4(C)C[C@@H](O)[C@H](O)C(C)(C)[C@@H]4CC[C@@]3(C)[C@]1(C)CC2 . Reported IC50?
Result: 82.5

Ask: Item under review: C[C@H]1[C@H](C)CC[C@]2(C(=O)O[C@@H]3O[C@H](CO)[C@@H](O)[C@H](O)[C@H]3O)CC[C@]3(C)C(=CC[C@@H]4[C@@]5(C)C[C@@H](O)[C@H](O)C(C)(C)[C@@H]5CC[C@]43C)[C@H]12 . Reported IC50?
Result: 106

***
Ask: Item under review: C[C@H]1[C@H](C)CC[C@]2(C(=O)OCc3ccccc3)CC[C@]3(C)C(=CC[C@@H]4[C@@]5(C)C[C@@H](O)[C@@H](O)C(C)(C)[C@@H]5CC[C@]43C)[C@H]12 . Reported IC50?
Result: 324

Ask: Item under review: CC(=O)O[C@@H]1C[C@]2(C)[C@H]3CC=C4[C@@H]5[C@@H](C)[C@H](C)CC[C@]5(C(=O)O)CC[C@@]4(C)[C@]3(C)CC[C@H]2C(C)(C)[C@H]1O . Reported IC50?
Result: 37.7

###

# protocolSummary: Inhibition of rabbit muscle glycogen phosphorylase a
# Parameters: species or system Oryctolagus cuniculus
assayReadout: pIC50
Lab note: report pIC50 as minus log10 of the concentration in molar units, number only.

Ask: Item under review: COC(=O)[C@]12CC[C@@H](C)[C@H](C)[C@H]1C1=CC[C@@H]3[C@@]4(C)C[C@@H](O)[C@H](O)C(C)(C)[C@@H]4CC[C@@]3(C)[C@]1(C)CC2 . Reported pIC50?
Result: 4.47

***
Ask: Item under review: C[C@H]1[C@H](C)CC[C@]2(C(=O)O)CC[C@]3(C)C(=CC[C@@H]4[C@@]5(C)C[C@@H](OC(=O)c6ccccc6)[C@H](O)C(C)(C)[C@@H]5CC[C@]43C)[C@H]12 . Reported pIC50?
Result: 5.29

Ask: Item under review: CCC(=O)O[C@@H]1C[C@]2(C)[C@H]3CC=C4[C@@H]5[C@@H](C)[C@H](C)CC[C@]5(C(=O)O)CC[C@@]4(C)[C@]3(C)CC[C@H]2C(C)(C)[C@H]1O . Reported pIC50?
Result: 4.01

###

# protocolSummary: Inhibition of rabbit muscle glycogen phosphorylase a
# Design: species or system Oryctolagus cuniculus
pIC50: −log10 of the molar value.
Hi, to clarify the labels: Yes covers pIC50 from 4 upward, No covers anything below 4.

Here are 3 compounds together with their reported answers.
Ask: Does the compound Cc1ccc(S(=O)(=O)O[C@@H]2C[C@]3(C)[C@H]4CC=C5[C@@H]6[C@@H](C)[C@H](C)CC[C@]6(C(=O)OCc6ccccc6)CC[C@@]5(C)[C@]4(C)CC[C@H]3C(C)(C)[C@H]2O)cc1 have recorded pIC50 that is 4 or more?
Result: No

Ask: Does the compound C[C@H]1[C@H](C)CC[C@]2(C(=O)OCc3ccccc3)CC[C@]3(C)C(=CC[C@@H]4[C@@]5(C)C[C@@H](OC(=O)CCC(=O)O)[C@H](OC(=O)CCC(=O)O)C(C)(C)[C@@H]5CC[C@]43C)[C@H]12 have recorded pIC50 that is 4 or more?
Result: No

Ask: Does the compound C[C@H]1[C@H](C)CC[C@]2(C(=O)OCc3ccccc3)CC[C@]3(C)C(=CC[C@@H]4[C@@]5(C)C=C(O)C(=O)C(C)(C)[C@@H]5CC[C@]43C)[C@H]12 have recorded pIC50 that is 4 or more?
Result: Yes

***
Ask: Does the compound C[C@H]1[C@H](C)CC[C@]2(C(=O)OCn3cccn3)CC[C@]3(C)C(=CC[C@@H]4[C@@]5(C)C[C@@H](O)[C@H](O)C(C)(C)[C@@H]5CC[C@]43C)[C@H]12 have recorded pIC50 that is 4 or more?
Result: Yes

Ask: Does the compound C[C@H]1[C@H](C)CC[C@]2(C(=O)O)CC[C@]3(C)C(=CC[C@@H]4[C@@]5(C)C[C@@H](O)[C@H](O)C(C)(C)[C@@H]5CC[C@]43C)[C@H]12 [COROSOLIC ACID] have recorded pIC50 that is 4 or more?
Result: Yes
